Target: NAD-dependent protein deacetylase sirtuin-3, mitochondrial (Homo sapiens, UniProt Q9NTG7)
Sequence (Q9NTG7 whole entry): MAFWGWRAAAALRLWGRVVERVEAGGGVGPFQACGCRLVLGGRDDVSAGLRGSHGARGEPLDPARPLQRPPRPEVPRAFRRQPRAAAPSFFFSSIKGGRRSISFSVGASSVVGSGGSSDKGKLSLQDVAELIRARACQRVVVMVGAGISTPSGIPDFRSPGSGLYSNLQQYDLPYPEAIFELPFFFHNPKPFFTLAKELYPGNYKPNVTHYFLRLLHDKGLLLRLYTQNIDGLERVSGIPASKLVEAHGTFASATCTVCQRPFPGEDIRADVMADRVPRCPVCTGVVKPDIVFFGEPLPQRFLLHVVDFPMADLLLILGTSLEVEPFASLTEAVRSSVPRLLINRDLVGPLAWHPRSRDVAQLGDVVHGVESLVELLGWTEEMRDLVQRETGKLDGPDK
Assay: Binding affinity to human Sirt3 (118 to 399 residues) assessed as dissociation constant using acetylated MnSOD peptide as substrate by microscale thermophoresis analysis
pKd: −log10 of the molar value.
REPORTED_PROPERTY: pKd

>>> reported_result("C=CCc1ccc(O)c(-c2ccc(O)c(CC=C)c2)c1 [HONOKIOL]")
6.01
>>> reported_result("NC(=O)c1ccc[n+]([C@@H]2C[C@H](COP(=O)(O)OP(=O)(O)OC[C@H]3O[C@@H](n4cnc5c(N)ncnc54)[C@H](O)[C@@H]3O)[C@@H](O)[C@H]2O)c1")
5.14

src = ChEMBL document CHEMBL5214958
